Origin of the recorded values: patent US10975083B2

test: in vitro; settings: dog, MDCK, pH 7.4;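 further: MDCK monolayers on transwell filters in HBSS, compound dosed on the apical side, receiver chamber sampled at 30 min and quantified by LC-MS to derive Papp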
A collection of compounds and their measured Papp A→B at 30 min, 50 μM
State the answer as a number, implicitly in ×10⁻⁶ cm/s.

# compound NC(=S)N1CC[C@H](c2cc(F)cc(F)c2)C1 ; its Papp A→B at 30 min, 50 μM = 100

Form field Papp A→B at 30 min, 50 μM, entry NC(=S)N1CC2CC2(c2cc(F)ccc2F)C1 (stereo not drawn) : 79.4

For this compound ( Fc1ccc(F)c([C@@]23C[C@@H]2c2c[nH]c(=S)n2C3)c1 ), measured Papp A→B at 30 min, 50 μM is 63.1

Papp A→B at 30 min, 50 μM reading for NC(=S)N1CC[C@@H](c2cc(F)cc(F)c2)C1 : 100

Memo: NC(=S)N1CCC(c2cc(F)cc(F)c2F)C1 (stereo not drawn) , reported Papp A→B at 30 min, 50 μM: 100
